# target or test system: AgrC-IV (Staphylococcus aureus)
# assay procedure: Hemolysis assay, wild-type group-IV strain RN4850, rabbit red blood cells
# experimental conditions: read-out: AgrC-IV IC50; hemolysis assay; 200 fM − 10 μM
pIC50: −log10 of the molar value. Positions of bridges follow the written chain, without caps; N, C: chain ends. Residues, ends and D or L forms follow the SMILES beside them.
Please use fulfilled whenever pIC50 is not below 8, and not fulfilled whenever it is.

molecule	class
CC(C)C[C@@H]1NC(=O)[C@H](CO)NC(=O)[C@H](CO)NC(=O)[C@@H](NC(=O)[C@H](C)NC(=O)[C@H](CC(N)=O)NC(=O)[C@@H](NC(=O)CN)C(C)C)CSC(=O)[C@H](Cc2ccccc2)NC1=O [AIP-II, G-V-N-A-(C-S-S-L-F), reference compound] (H-GVNACSSLF; thioester 5-C)	fulfilled

**Query** Tell me whether pIC50 is at least 8 here: CC[C@H](C)[C@H](N)C(=O)N[C@@H](CC(N)=O)C(=O)N[C@H]1CSC(=O)[C@H](CC(C)C)NC(=O)[C@H](CC(C)C)NC(=O)[C@H](Cc2ccccc2)NC(=O)[C@H](C)NC1=O [AIP-III D4A, I-N-(C-A-F-L-L)] (H-INCAFLL; thioester 3-C)
**Result** fulfilled

----------
# target or test system: AgrC-IV (Staphylococcus aureus, UniProt Q309Z2)
# Sequence (Q309Z2 1-430): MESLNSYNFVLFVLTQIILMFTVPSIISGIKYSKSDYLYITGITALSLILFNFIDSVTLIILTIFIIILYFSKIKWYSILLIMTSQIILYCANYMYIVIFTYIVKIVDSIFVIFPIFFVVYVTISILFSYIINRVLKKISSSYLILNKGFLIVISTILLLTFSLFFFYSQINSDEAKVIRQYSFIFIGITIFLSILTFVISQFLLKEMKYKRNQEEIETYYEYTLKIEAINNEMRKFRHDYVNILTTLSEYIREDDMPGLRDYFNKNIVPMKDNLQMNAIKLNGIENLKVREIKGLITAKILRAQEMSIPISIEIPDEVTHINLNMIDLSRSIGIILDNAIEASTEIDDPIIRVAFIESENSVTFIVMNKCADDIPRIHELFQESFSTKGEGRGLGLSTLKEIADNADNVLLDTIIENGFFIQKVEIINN
# Type: cell-based, S. aureus
# experimental conditions: read-out: AgrC-IV IC50; fluorescence reporter strain; AIPs tested over 200 fM − 10 μM or (b1) 2.5 pM − 10 μM; triplicate
Positions of bridges follow the written chain, without caps; N, C: chain ends. Non-standard residues stand in square brackets, D forms with d. Residues, ends and D or L forms follow the SMILES beside them. NMeD = CN[C@@H](CC(=O)O)C(=O)O; NMeC = CN[C@@H](CS)C(=O)O
This section presents molecules with their documented IC50 values.
Your answer should be a plain number; it is taken to be in µM.

Solved entries:
molecule	IC50 [µM]
CC[C@H](C)[C@H](N)C(=O)N[C@@H](CC(N)=O)C(=O)N[C@H]1CSC(=O)[C@H](CC(C)C)NC(=O)[C@H](CC(C)C)NC(=O)[C@H](C)NC(=O)[C@H](CC(=O)O)NC1=O [AIP-III F5A, I-N-(C-D-A-L-L)] (H-INCDALL; thioester 3-C)	0.118
CC[C@H](C)[C@H](N)C(=O)N[C@@H](CC(N)=O)C(=O)N(C)[C@H]1CSC(=O)[C@H](CC(C)C)NC(=O)[C@H](CC(C)C)NC(=O)[C@H](Cc2ccccc2)NC(=O)[C@H](CC(=O)O)NC1=O [AIP-III N-Me-C3, I-N-(NMeC-D-F-L-L)] (H-IN[NMeC]DFLL; thioester 3-C)	0.106

**Query** Look up and state reported IC50 for CC[C@H](C)[C@H](N)C(=O)N[C@@H](CC(N)=O)C(=O)N[C@H]1CSC(=O)[C@H](CC(C)C)NC(=O)[C@H](CC(C)C)NC(=O)[C@H](Cc2ccccc2)NC(=O)[C@H](CC(=O)O)N(C)C1=O [AIP-III N-Me-D4, I-N-(C-NMeD-F-L-L)] (H-INC[NMeD]FLL; thioester 3-C)
**Result** 0.0369

----------
# target or test system: AgrC-III (Staphylococcus aureus)
# Sequence (O33590 1-425): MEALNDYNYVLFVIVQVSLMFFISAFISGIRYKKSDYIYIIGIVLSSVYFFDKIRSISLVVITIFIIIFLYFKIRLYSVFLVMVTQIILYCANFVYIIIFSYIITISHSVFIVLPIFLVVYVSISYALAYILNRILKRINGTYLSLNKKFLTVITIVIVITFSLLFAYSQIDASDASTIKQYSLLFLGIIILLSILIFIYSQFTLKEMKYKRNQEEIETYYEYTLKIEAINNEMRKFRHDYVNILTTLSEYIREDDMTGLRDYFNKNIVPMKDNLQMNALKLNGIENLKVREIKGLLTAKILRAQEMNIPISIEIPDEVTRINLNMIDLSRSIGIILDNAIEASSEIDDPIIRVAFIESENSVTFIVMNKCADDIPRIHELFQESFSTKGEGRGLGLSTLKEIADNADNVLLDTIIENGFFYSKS
# Format: cell-based, S. aureus
# experimental conditions: read-out: AgrC-III IC50; fluorescence reporter strain; AIPs tested over 200 fM − 10 μM or (b1) 2.5 pM − 10 μM; triplicate
Positions of bridges follow the written chain, without caps; N, C: chain ends. Non-standard residues stand in square brackets, D forms with d. Residues, ends and D or L forms follow the SMILES beside them. *: point of attachment. X1 = CC[C@@H](C)C1NC(=O)CN(CC(=O)*)C1=O; NMeI = CC[C@H](C)[C@H](NC)C(=O)O; NMeL = CN[C@@H](CC(C)C)C(=O)O; Nphe = O=C(O)CNCc1ccccc1; Nleu = CC(C)CNCC(=O)O
Criterion: IC50 strictly less than 90 nM. Met: YES. Not met: NO.

These solved cases illustrate the format of a correct answer.
molecule	class
CC[C@H](C)[C@H](N)C(=O)N[C@@H](CC(N)=O)C(=O)N[C@H]1CSC(=O)[C@H](CC(C)C)NC(=O)[C@H](CC(C)C)N(C)C(=O)[C@H](Cc2ccccc2)NC(=O)[C@H](CC(=O)O)NC1=O [AIP-III N-Me-L6, I-N-(C-D-F-NMeL-L)] (H-INCDF[NMeL]L; thioester 3-C)	NO
CC[C@H](C)[C@H](N)C(=O)N[C@@H](CC(N)=O)C(=O)N[C@H]1CSC(=O)[C@H](CC(C)C)N(C)C(=O)[C@H](CC(C)C)NC(=O)[C@H](Cc2ccccc2)NC(=O)[C@H](CC(=O)O)NC1=O [AIP-III N-Me-L7, I-N-(C-D-F-L-NMeL)] (H-INCDFL[NMeL]; thioester 3-C)	NO
CC(C)C[C@@H]1NC(=O)[C@H](CO)NC(=O)[C@H](CO)NC(=O)[C@@H](NC(=O)[C@H](C)NC(=O)[C@H](CC(N)=O)NC(=O)[C@@H](NC(=O)CN)C(C)C)CSC(=O)[C@H](Cc2ccccc2)NC1=O [AIP-II, G-V-N-A-(C-S-S-L-F), reference compound] (H-GVNACSSLF; thioester 5-C)	YES

**Query** For CC[C@H](C)[C@H](N)C(=O)N[C@@H](CC(N)=O)C(=O)N[C@H]1CSC(=O)[C@H](CC(C)C)NC(=O)[C@H](CC(C)C)NC(=O)CN(Cc2ccccc2)C(=O)[C@H](CC(=O)O)NC1=O [AIP-III nF5, I-N-(C-D-nF-L-L)] (H-INCD[Nphe]LL; thioester 3-C) , is the recorded IC50 below the cut-off of 90 nM?
**Result** NO

**Query** Determine whether this molecule shows IC50 lower than 90 nM (ties excluded): CC[C@@H](C)C1NC(=O)CN(CC(=O)N[C@H]2CSC(=O)[C@H](CC(C)C)NC(=O)[C@H](CC(C)C)NC(=O)[C@H](Cc3ccccc3)NC(=O)[C@H](CC(=O)O)NC2=O)C1=O (stereo partly drawn) [AIP-III nN2 DKP, (I-nN)-(C-D-F-L-L)] (X1-CDFLL; thioester 1-C)
**Result** YES

**Query** Input CC[C@H](C)[C@H](N)C(=O)N[C@@H](CC(N)=O)C(=O)N[C@H]1CSC(=O)[C@H](CC(C)C)NC(=O)[C@H](CC(C)C)NC(=O)[C@H](C)NC(=O)[C@H](CC(=O)O)NC1=O [AIP-III F5A, I-N-(C-D-A-L-L)] (H-INCDALL; thioester 3-C) ; condition: IC50 strictly below 90 nM. Does it hold?
**Result** NO

**Query** Given the entry CC[C@H](C)[C@H](N)C(=O)N[C@@H](CC(N)=O)C(=O)N[C@H]1CSC(=O)[C@H](CC(C)C)NC(=O)[C@H](C)NC(=O)[C@H](Cc2ccccc2)NC(=O)[C@H](CC(=O)O)NC1=O [AIP-III L6A, I-N-(C-D-F-A-L)] (H-INCDFAL; thioester 3-C) , would its reported IC50 be below 90 nM?
**Result** NO

**Query** Dear colleague, could you confirm whether IC50 of CC[C@H](C)[C@H](NC)C(=O)N[C@@H](CC(N)=O)C(=O)N[C@H]1CSC(=O)[C@H](CC(C)C)NC(=O)[C@H](CC(C)C)NC(=O)[C@H](Cc2ccccc2)NC(=O)[C@H](CC(=O)O)NC1=O [AIP-III N-Me-I1, NMeI-N-(C-D-F-L-L)] (H-[NMeI]NCDFLL; thioester 3-C) falls below 90 nM? Thanks.
**Result** NO

**Query** For this molecule, is IC50 lower than 90 nM? CC[C@H](C)[C@H](N)C(=O)N[C@@H](CC(N)=O)C(=O)N[C@H]1CSC(=O)[C@H](CC(C)C)NC(=O)CN(CC(C)C)C(=O)[C@H](Cc2ccccc2)NC(=O)[C@H](CC(=O)O)NC1=O [AIP-III nL6, I-N-(C-D-F-nL-L)] (H-INCDF[Nleu]L; thioester 3-C)
**Result** NO

**Query** # check: IC50 < 90 nM for CC(C)C[C@@H]1NC(=O)[C@H](Cc2ccccc2)NC(=O)[C@H](CC(=O)O)NC(=O)[C@@H](NC(=O)[C@H](CC(N)=O)NC(=O)[C@H](C)N)CSC(=O)[C@H](CC(C)C)NC1=O [AIP-III I1A, A-N-(C-D-F-L-L)] (H-ANCDFLL; thioester 3-C)
**Result** NO

----------
Entries and their IC50
# target or test system: AgrC-III (Staphylococcus aureus)
# assay procedure: Hemolysis assay, wild-type group-III strain MN8, rabbit red blood cells
# experimental conditions: read-out: AgrC-III IC50, 200 fM − 10 μM
Positions of bridges follow the written chain, without caps; N, C: chain ends. Residues, ends and D or L forms follow the SMILES beside them.
// return numeric value only (unit: nM, not printed)

Here's what some known entries look like.
compound	IC50, nM
CC(C)C[C@@H]1NC(=O)[C@H](CO)NC(=O)[C@H](CO)NC(=O)[C@@H](NC(=O)[C@H](C)NC(=O)[C@H](CC(N)=O)NC(=O)[C@@H](NC(=O)CN)C(C)C)CSC(=O)[C@H](Cc2ccccc2)NC1=O [AIP-II, G-V-N-A-(C-S-S-L-F), reference compound] (H-GVNACSSLF; thioester 5-C)	3.59
CC[C@H](C)[C@@H]1NC(=O)[C@H](Cc2ccccc2)NC(=O)[C@H](C)NC(=O)[C@@H](NC(C)=O)CSC(=O)[C@H](CCSC)NC1=O [tAIP-I D2A, Ac-(C-A-F-I-M), reference compound] (Ac-CAFIM; thioester 1-C)	0.853
CC[C@H](C)[C@@H]1NC(=O)[C@H](Cc2ccccc2)NC(=O)[C@H](Cc2ccc(O)cc2)NC(=O)[C@@H](NC(=O)[C@@H](NC(=O)[C@H](CO)NC(=O)[C@@H](N)Cc2ccc(O)cc2)[C@@H](C)O)CSC(=O)[C@H](CCSC)NC1=O [AIP-IV, Y-S-T-(C-Y-F-I-M), reference compound] (H-YSTCYFIM; thioester 4-C)	1.49
CC[C@H](C)[C@H](N)C(=O)N[C@@H](CC(N)=O)C(=O)N[C@H]1CSC(=O)[C@H](CC(C)C)NC(=O)[C@H](CC(C)C)NC(=O)[C@H](Cc2ccccc2)NC(=O)[C@H](C)NC1=O [AIP-III D4A, I-N-(C-A-F-L-L)] (H-INCAFLL; thioester 3-C)	0.163

**Query** Specify measured IC50 for CC[C@H](C)[C@@H]1NC(=O)[C@H](Cc2ccccc2)NC(=O)[C@H](CC(=O)O)NC(=O)[C@@H](NC(=O)[C@@H](NC(=O)[C@H](CO)NC(=O)[C@@H](N)Cc2ccc(O)cc2)[C@@H](C)O)CSC(=O)[C@H](CCSC)NC1=O [AIP-I, Y-S-T-(C-D-F-I-M), reference compound] (H-YSTCDFIM; thioester 4-C) .
**Result** 6.12
